- TEST_TARGET: human PI3Kalpha p110 catalytic subunit (Rat-1 pBABEpuro Myr-HA-hp110alpha) (Homo sapiens)
- Construct: Myr (myristoylation signal) (N); HA (N); expressed in transfected cells; host or cells: Rat-1
- Sequence (P42336 whole entry): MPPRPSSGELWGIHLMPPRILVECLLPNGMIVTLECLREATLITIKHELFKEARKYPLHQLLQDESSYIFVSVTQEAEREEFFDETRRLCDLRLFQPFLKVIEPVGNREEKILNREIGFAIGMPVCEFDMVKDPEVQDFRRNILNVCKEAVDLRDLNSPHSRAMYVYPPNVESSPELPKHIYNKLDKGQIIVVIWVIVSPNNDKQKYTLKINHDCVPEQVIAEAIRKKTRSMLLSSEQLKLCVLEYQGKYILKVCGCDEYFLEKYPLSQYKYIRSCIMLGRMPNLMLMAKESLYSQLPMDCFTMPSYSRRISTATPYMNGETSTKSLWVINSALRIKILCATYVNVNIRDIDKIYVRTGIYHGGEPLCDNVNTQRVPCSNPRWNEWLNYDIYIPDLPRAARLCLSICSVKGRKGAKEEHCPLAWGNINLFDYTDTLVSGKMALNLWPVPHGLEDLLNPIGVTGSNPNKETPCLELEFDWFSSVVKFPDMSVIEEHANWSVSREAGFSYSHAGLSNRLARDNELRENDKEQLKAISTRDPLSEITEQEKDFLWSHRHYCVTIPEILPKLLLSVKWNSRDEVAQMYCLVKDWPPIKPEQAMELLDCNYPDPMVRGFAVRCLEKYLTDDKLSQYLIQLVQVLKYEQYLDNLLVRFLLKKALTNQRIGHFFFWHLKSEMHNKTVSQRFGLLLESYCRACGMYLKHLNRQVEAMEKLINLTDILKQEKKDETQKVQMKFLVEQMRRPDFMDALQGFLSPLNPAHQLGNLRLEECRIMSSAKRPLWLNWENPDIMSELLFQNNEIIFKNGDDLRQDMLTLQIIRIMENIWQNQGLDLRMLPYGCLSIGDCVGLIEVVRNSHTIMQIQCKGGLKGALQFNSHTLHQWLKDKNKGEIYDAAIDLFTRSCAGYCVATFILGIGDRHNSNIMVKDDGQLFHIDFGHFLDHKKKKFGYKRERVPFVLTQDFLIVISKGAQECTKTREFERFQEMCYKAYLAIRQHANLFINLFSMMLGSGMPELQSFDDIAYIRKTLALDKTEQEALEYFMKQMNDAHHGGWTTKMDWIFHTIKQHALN
- Sequence (Q63787 whole entry partner): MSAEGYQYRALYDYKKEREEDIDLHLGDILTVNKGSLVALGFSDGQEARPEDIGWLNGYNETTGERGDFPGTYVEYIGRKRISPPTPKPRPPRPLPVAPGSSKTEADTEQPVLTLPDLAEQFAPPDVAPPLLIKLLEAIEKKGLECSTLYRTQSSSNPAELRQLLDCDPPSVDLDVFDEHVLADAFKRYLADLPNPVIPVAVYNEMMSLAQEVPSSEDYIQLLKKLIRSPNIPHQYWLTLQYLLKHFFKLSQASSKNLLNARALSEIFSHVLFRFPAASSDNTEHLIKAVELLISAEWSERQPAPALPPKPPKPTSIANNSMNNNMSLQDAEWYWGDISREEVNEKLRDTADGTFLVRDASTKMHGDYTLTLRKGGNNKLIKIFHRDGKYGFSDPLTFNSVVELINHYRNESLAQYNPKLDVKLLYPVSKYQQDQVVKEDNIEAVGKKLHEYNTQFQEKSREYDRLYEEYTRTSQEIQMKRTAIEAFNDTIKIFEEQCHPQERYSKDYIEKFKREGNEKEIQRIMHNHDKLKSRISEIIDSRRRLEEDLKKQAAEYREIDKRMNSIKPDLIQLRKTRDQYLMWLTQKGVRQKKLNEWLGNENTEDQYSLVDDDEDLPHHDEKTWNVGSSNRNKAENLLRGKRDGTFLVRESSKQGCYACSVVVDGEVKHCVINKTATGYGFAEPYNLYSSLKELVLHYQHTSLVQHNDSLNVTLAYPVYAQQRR
- ASSAY_TEXT: Cellular assay PI3Kalpha (p-Akt(S473) SureFire, Rat-1_PI3Kalpha cells)
- Format: cell-based
- CONDITIONS: 1 h compound treatment, read-out: Rat1-PI3Ka/ IC50
QUANTITY_MEASURED: pIC50
Scale for pIC50: -log10 of concentration given in mol/L; no unit attached.

C[C@H]1OC(=O)N(c2cc(-c3cnc(N)nc3C(F)(F)F)nc(N3CCOCC3)n2)[C@H]1CO [Example 18] : 7.42
C[C@@H]1OC(=O)N(c2cc(-c3cnc(N)nc3C(F)(F)F)nc(N3CCOCC3)n2)[C@H]1CO [Example 6] : 7.03
Nc1ncc(-c2cc(N3C(=O)OC4C(O)CCC43)nc(N3CCOCC3)n2)c(C(F)(F)F)n1 (single isomer, unassigned) [Example 22A] : 7.07

Next, consider the following compound.
# query: pIC50 of entry Nc1ncc(-c2cc(N3C(=O)O[C@H]4COC[C@H]43)nc(N3CCOCC3)n2)c(C(F)(F)F)n1 [Example 21]
7.07
